Below, each entry is listed alongside its reported TGI.
test system: DMS 114 small cell lung; assay: NCI tumour cell line growth inhibition, 48 h

# count of solved cases: 3
CC(C)(C)C(=O)Nc1ccccc1Br | > 100 µM
CC(C)(C)c1ccc(Oc2ccc(C#N)c(C#N)c2)c(C(C)(C)C)c1 | > 52.2 µM
CC(C)OP(=O)(OC(C)C)c1nn(-c2ccc([N+](=O)[O-])cc2)c(=N)s1 | > 100 µM

Below: the item to evaluate.
Indicate the recorded TGI value for this molecule: CC1=CCP(C(F)(F)F)P(C(F)(F)F)C1 (centres undefined)
> 100 µM

====

system: SF-539 CNS; assay: NCI tumour cell line growth inhibition, 48 h
PARAMETER: TGI (µM)
The answer is to be given in µM; state only the numeric part.

COc1cc2c(cc1C)NC(=O)/C2=C\c1cccnc1 | 51.7
Clc1ccc(Nc2ccnc(NCCNc3ccnc4cc(Cl)ccc34)n2)cc1 | 2.8
Cc1c(C(=O)CCl)c(=O)n(-c2ccccc2)n1C | 22.9
O=C(CSc1nc2ccc([N+](=O)[O-])cc2[nH]1)Nc1cccc(C(F)(F)F)c1 | 11.7
COc1ccc(/C=C/C(=O)/C=C(/C=C/c2ccc(OC)c(OC)c2)OB(F)F)cc1OC | 3.63

Next compound, please.
Note TGI for the compound shown: "CSC1=C(C)S/C(=C\c2ccc(/C=C3\SC(C)=C(SC)S3)cc2)S1"
92.5
